biological target: Thromboxane-A synthase (Rattus norvegicus) (UniProt P49430); assay: Thromboxane synthase inhibitor (TxSI) activity assessed by ex vivo inhibition of serum TXB2 production in rat after Intravenous administration; assay type: functional, organism-based
Sequence (P49430 whole entry): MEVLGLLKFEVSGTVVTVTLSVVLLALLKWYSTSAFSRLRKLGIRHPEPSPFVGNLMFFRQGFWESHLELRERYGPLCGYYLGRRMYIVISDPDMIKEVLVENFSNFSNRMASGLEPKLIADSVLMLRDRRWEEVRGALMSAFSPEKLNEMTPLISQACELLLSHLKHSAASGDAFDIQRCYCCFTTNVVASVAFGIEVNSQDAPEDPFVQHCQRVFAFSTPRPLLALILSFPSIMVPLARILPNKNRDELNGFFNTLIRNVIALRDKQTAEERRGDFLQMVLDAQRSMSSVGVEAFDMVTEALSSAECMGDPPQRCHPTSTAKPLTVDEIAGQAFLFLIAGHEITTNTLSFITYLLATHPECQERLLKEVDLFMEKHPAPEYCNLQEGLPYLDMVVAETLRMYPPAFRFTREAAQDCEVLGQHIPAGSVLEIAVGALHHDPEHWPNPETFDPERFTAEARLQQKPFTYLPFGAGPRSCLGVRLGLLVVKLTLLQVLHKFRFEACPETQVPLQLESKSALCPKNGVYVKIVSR
measurementType: ED50

Item CCOC(=O)CCCCO/N=C(\c1ccc(C(=O)N2CCc3c(sc4c3C(c3ccccc3Cl)=NC(C)c3nnc(C)n3-4)C2)cc1)c1cccnc1 (centres undefined) with Thromboxane-A synthase (Rattus norvegicus) (UniProt P49430) - ED50?
> 1 mg/kg

For Thromboxane-A synthase (Rattus norvegicus) (UniProt P49430), provide ED50 of CCOC(=O)CCCC/C=C(/c1cccnc1)c1cccc(CN2CCc3c(sc4c3C(c3ccccc3Cl)=NC(C)c3nnc(C)n3-4)C2)c1 (centres undefined) please.
0.71 mg/kg

Given the entry Cc1nnc2n1-c1sc3c(c1C(c1ccccc1Cl)=NC2C)CCN(Cc1cccc(/C(=N\OCCCCC(=O)O)c2cccnc2)c1)C3 (centres undefined) , what ED50 was observed with Thromboxane-A synthase (Rattus norvegicus) (UniProt P49430)?
1 mg/kg

Now consider the entry below.
Checklist item: ED50 tested on Thromboxane-A synthase (Rattus norvegicus) (UniProt P49430), entry CCOC(=O)CCCCO/N=C(/c1cccnc1)c1ccccc1C(=O)N1CCc2c(sc3c2C(c2ccccc2Cl)=NC(C)c2nnc(C)n2-3)C1 (centres undefined) , value?
> 1 mg/kg

###

target: Thromboxane-A synthase (Rattus norvegicus) (UniProt P49430); assay: Thromboxane synthase inhibitor (TxSI) activity was assessed by ex vivo inhibition of serum TXB2 production in rat after oral administration; format: functional, organism-based
measurementType: ED50

Any idea what ED50 came out for CCOC(=O)CCCCO/N=C(\c1ccc(CN2CCc3c(sc4c3C(c3ccccc3Cl)=NC(C)c3nnc(C)n3-4)C2)cc1)c1cccnc1 (stereo not drawn) on Thromboxane-A synthase (Rattus norvegicus) (UniProt P49430)?
> 10 mg/kg

Give Thromboxane-A synthase (Rattus norvegicus) (UniProt P49430) ED50 for `CCOC(=O)CCCCO/N=C(/c1cccnc1)c1cccc(CN2CCc3c(sc4c3C(c3ccccc3Cl)=NCc3nnc(C)n3-4)C2)c1`
> 10 mg/kg

Next:
Lab note: need ED50 with Thromboxane-A synthase (Rattus norvegicus) (UniProt P49430) for entry CCOC(=O)CCCCO/N=C(/c1cccnc1)c1cccc(CN2CCc3c(sc4c3C(c3ccccc3Cl)=NC(C)c3nnc(C)n3-4)C2)c1 (stereo not drawn) , please look it up.
> 10 mg/kg

###

target: Thromboxane-A synthase (Homo sapiens, UniProt P24557); test: In vitro inhibition of thromboxane synthase (TXA2) in human platelet microsomes [reduced formation of TXB2 from prostaglandin H2(PGH2)]; assay type: functional, Microsome; conditions: read-out: IC50
Sequence (P24557 whole entry): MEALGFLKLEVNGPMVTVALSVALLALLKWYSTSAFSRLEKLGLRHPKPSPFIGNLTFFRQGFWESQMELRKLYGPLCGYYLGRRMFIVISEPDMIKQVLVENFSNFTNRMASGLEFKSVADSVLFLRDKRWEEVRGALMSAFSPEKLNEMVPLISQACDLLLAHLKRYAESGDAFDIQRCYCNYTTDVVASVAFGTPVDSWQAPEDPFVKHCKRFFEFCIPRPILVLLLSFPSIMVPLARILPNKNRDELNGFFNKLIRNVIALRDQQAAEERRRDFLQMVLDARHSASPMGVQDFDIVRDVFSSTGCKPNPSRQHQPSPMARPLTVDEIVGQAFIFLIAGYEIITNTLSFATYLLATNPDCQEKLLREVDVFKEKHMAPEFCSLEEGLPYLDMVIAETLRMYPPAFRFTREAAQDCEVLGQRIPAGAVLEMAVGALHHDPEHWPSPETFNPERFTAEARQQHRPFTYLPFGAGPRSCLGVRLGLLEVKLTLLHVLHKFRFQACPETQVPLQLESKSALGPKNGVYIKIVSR
measurementType: IC50

Here are 2 compounds together with their reported answers.
May I ask what IC50 has been recorded for Cc1nnc2n1-c1sc3c(c1C(c1ccccc1Cl)=NC2C)CCN(Cc1cccc(/C(=N\OCCCCC(=O)OCCCc2cccnc2)c2cccnc2)c1)C3 (stereo not drawn) ?
> 1000 nM

What does the data say about its IC50? Entry: CCOC(=O)CCCCO/N=C(/c1cccnc1)c1ccccc1C(=O)N1CCc2c(sc3c2C(c2ccccc2Cl)=NC(C)c2nnc(C)n2-3)C1 (stereo not drawn)
> 1000 nM

Attention now shifts to the item below.
Reported IC50 for Cc1nnc2n1-c1sc3c(c1C(c1ccccc1Cl)=NC2C)CCNC3 (stereo not drawn) : what is it?
> 1000 nM

###

target: Thromboxane-A synthase (Homo sapiens, UniProt P24557); assay: In vitro inhibition of thromboxane synthase (TXA2) in human platelet microsomes [reduced formation of TXB2 from prostaglandin H2(PGH2)]; type: functional, Microsome; details: read-out: IC50
# Lookup of reported IC50 keyed by entry
Give the value in µM but do not write µM after it.

Would you mind telling me what IC50 value was observed for Cc1nnc2n1-c1sc3c(c1C(c1ccccc1Cl)=NC2C)CCN(Cc1cccc(/C(=N\OCCCCC(=O)OCCN2CCOCC2)c2cccnc2)c1)C3 (stereo not drawn) ?
0.151

What measured IC50 goes with CCOC(=O)CCCCO/N=C(\c1ccc(CN2CCc3c(sc4c3C(c3ccccc3Cl)=NC(C)c3nnc(C)n3-4)C2)cc1)c1cccnc1 (stereo not drawn) ?
0.08

Others:
// lookup IC50 for CCOC(=O)CCCCO/N=C(\c1ccc(CC(=O)N2CCc3c(sc4c3C(c3ccccc3Cl)=NC(C)c3nnc(C)n3-4)C2)cc1)c1cccnc1 (stereo not drawn)
0.069

###

Listed compounds paired with reported ED50
molecular target: Platelet-activating factor receptor (Mus musculus); assay: Antagonism of Platelet activating factor (PAF)in mice after Intravenous administration, assayed by PAF-induced death; format: functional, organism-based
Your reply should be a number followed by the unit it is expressed in.

# lookup: ED50 of CCOC(=O)CCCCO/N=C(/c1cccnc1)c1cccc(C(=O)N2CCc3c(sc4c3C(c3ccccc3Cl)=NC(C)c3nnc(C)n3-4)C2)c1 (centres undefined)
0.47 mg/kg

###

We begin with a simple list: items and their reported ED50.
target: Platelet-activating factor receptor (Mus musculus) (UniProt Q62035); assay: Antagonism of Platelet activating factor (PAF)in mice after Intravenous administration, assayed by PAF-induced death; type: functional, organism-based
Sequence (Q62035 whole entry): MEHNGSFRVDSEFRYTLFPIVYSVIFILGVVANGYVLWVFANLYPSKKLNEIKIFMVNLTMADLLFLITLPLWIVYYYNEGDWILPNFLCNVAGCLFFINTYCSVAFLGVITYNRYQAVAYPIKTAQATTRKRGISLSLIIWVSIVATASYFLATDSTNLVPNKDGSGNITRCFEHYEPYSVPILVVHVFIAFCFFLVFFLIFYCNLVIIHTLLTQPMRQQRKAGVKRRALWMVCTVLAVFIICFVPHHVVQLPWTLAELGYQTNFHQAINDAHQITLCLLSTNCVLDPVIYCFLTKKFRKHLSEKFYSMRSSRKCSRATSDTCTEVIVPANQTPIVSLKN
Write down the numeric answer in mg/kg and omit the unit.

Which measured ED50 value corresponds to Cc1nnc2n1-c1sc3c(c1C(c1ccccc1Cl)=NC2C)CCN(Cc1cccc(/C(=N\OCCCCC(=O)OCCCc2cccnc2)c2cccnc2)c1)C3 (stereo not drawn) ?
0.54

I am curious: what ED50 value has been reported for `CCOC(=O)CCCCO/N=C(/c1cccnc1)c1cccc(CN2CCc3c(sc4c3C(c3ccccc3Cl)=NCc3nnc(C)n3-4)C2)c1` ?
0.8

---
State the recorded ED50 for this entry: CCOC(=O)C1=C(c2ccc(-n3c(C)nc4cnccc43)cc2)NC(C)=C(C(=O)Nc2ccccn2)C1c1ccccc1Cl (stereo not drawn)
0.1
